# Test system: 931267-113-T-J1-PDC multicell spheroid viability
# testDescription: Anticancer human tumor 931267-113-T-J1-PDC patient-derived colon adenocarcinoma cell line growth inhibition [PI3K]
# experimentalSetup: second compound 0.1 µM; first compound 0.3 µM; active compounds read low
readoutKind: viability, T/C (%)
Give the number; % is assumed, so skip it.

Solved entries:
compound	viability, T/C (%)
Cn1cnc2c(F)c(Nc3ccc(Br)cc3Cl)c(C(=O)NOCCO)cc21 + Cc1nc(NC(=O)N2CCCC2C(N)=O)sc1-c1ccnc(C(C)(C)C(F)(F)F)c1	30.1
Cn1cnc2c(F)c(Nc3ccc(Br)cc3Cl)c(C(=O)NOCCO)cc21 + CC(Nc1ccc2c(c1)OCCn1cc(N3C(=O)OCC3C(F)F)nc1-2)C(N)=O	21.3
Cn1cnc2c(F)c(Nc3ccc(Br)cc3Cl)c(C(=O)NOCCO)cc21 + CC(Nc1ncnc2nc[nH]c12)c1cc2cccc(Cl)c2c(=O)n1-c1ccccc1	33.1

Q: For the compound Cn1cnc2c(F)c(Nc3ccc(Br)cc3Cl)c(C(=O)NOCCO)cc21 + COc1c(OCCCN2CCOCC2)ccc2c3n(c(=NC(=O)c4cnc(N)nc4)nc12)CCN3 , what viability, T/C is on record?
Ans: 11.9

----------
# Test system: 931267-113-T-J1-PDC multicell spheroid viability
# testDescription: Anticancer human tumor 931267-113-T-J1-PDC cell line growth inhibition [PI3K];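 further: viability read 7 days after compound addition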
# experimentalSetup: second compound 3.16 µM; first compound 1 µM; active compounds read low
viability, T/C values for the compounds below.
Answer with a number only, understood to be in %.

Solved cases below.
compound	readoutKind	recordedMeasurement
CCCS(=O)(=O)Nc1ccc(F)c(C(=O)c2c[nH]c3ncc(-c4ccc(Cl)cc4)cc23)c1F + CC(Nc1ncnc2nc[nH]c12)c1cc2cccc(Cl)c2c(=O)n1-c1ccccc1	viability, T/C	116
Cn1nccc1Nc1nccc(-c2ccn(C(CO)c3ccc(Cl)c(F)c3)c(=O)c2)n1 (stereo not given) + CC(Nc1ncnc2nc[nH]c12)c1cc2cccc(Cl)c2c(=O)n1-c1ccccc1	viability, T/C	78
C[C@@H](NC(=O)c1ncnc(N)c1Cl)c1ncc(C(=O)Nc2cc(C(F)(F)F)c(Cl)cn2)s1 + Cc1nc(NC(=O)N2CCCC2C(N)=O)sc1-c1ccnc(C(C)(C)C(F)(F)F)c1	viability, T/C	79.8
CNC(=O)c1ccc(N2C(=S)N(c3ccc(C#N)c(C(F)(F)F)c3)C(=O)C2(C)C)cc1F + Cc1nc(NC(=O)N2CCCC2C(N)=O)sc1-c1ccnc(C(C)(C)C(F)(F)F)c1	viability, T/C	62.5

Attention now shifts to the item below.
Q: Which viability, T/C is reported for this compound? CC(Cn1ccc(-c2ccc(C#N)c(Cl)c2)n1)NC(=O)c1cc(C(C)O)[nH]n1 (stereo not given) + CC(Nc1ncnc2nc[nH]c12)c1cc2cccc(Cl)c2c(=O)n1-c1ccccc1
Ans: 99.6

----------
# Test system: 931267-113-T-J1-PDC multicell spheroid viability
# testDescription: Anticancer human tumor 931267-113-T-J1-PDC cell line growth inhibition [PI3K];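 further: viability read 7 days after compound addition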
# experimentalSetup: second compound 0.0316 µM; first compound 0.00949 µM; active compounds read low
The compounds listed here are annotated with their viability, T/C.

As a guide, the following entries are already answered.
compound	viability, T/C
Cn1cnc2c(F)c(Nc3ccc(Br)cc3Cl)c(C(=O)NOCCO)cc21 + Cc1nc(NC(=O)N2CCCC2C(N)=O)sc1-c1ccnc(C(C)(C)C(F)(F)F)c1	86%
Cn1cnc2c(F)c(Nc3ccc(Br)cc3Cl)c(C(=O)NOCCO)cc21 + COc1c(OCCCN2CCOCC2)ccc2c3n(c(=NC(=O)c4cnc(N)nc4)nc12)CCN3	76.4%

Q: Fill in: viability, T/C of Cn1cnc2c(F)c(Nc3ccc(Br)cc3Cl)c(C(=O)NOCCO)cc21 + CC(Nc1ncnc2nc[nH]c12)c1cc2cccc(Cl)c2c(=O)n1-c1ccccc1 is ___
Ans: 84%

Q: Reported viability, T/C for Cn1cnc2c(F)c(Nc3ccc(Br)cc3Cl)c(C(=O)NOCCO)cc21 + CC(Nc1ccc2c(c1)OCCn1cc(N3C(=O)OCC3C(F)F)nc1-2)C(N)=O : what is it?
Ans: 89.6%

Origin of measurements: PubChem BioAssay AID1963970
